The reported measurements were obtained from ChEMBL document CHEMBL1135003.

Experimental protocol: In vitro effect on the proliferation of T lymphocytes of mouse splenocytes at 2 umol/L to show the cell-mediated immunity by [3H]thymidine incorporation
Assay type: functional
For each record, write down the corresponding Activity.

Fill blank: measured Activity of the compound `N#C/C(=C\COC(=O)c1ccccc1)CO` is ____.
68%

Record request: Activity value, item `N#C/C(=C\COC(=O)/C=C/c1ccccc1)CO`
62%

Name the recorded Activity for `N#C/C(=C\COC(=O)c1ccc(Cl)cc1Cl)CO` .
94%

Activity for `N#C/C(=C\COC(=O)c1ccc(F)cc1Cl)CO` ?
98%

Dear colleague, I am looking for the recorded Activity of the following compound: `COc1ccc(C(=O)OC/C=C(\C#N)CO)cc1`
63%

Would you mind telling me what Activity value was observed for `COc1ccc(OC/C=C(\C#N)CO)cc1` ?
114%

State the recorded Activity for this entry: `COc1ccc(COC/C=C(\C#N)CO)cc1`
54%

I'd like to know its Activity. The compound in question is `N#C/C(=C\COc1ccccc1)CO`
113%

* * *

Task for the reader: assign each of the following compounds its reported Activity.
Experimental protocol: In vitro effect on the proliferation of B lymphocytes of mouse splenocytes at 2.0 umol/L to show the antibody formation by [3H]thymidine incorporation
Assay type: functional
Your answer should be a plain number; it is taken to be in %.

Report Activity for `N#C/C(=C\COC(=O)/C=C/c1ccccc1)CO` please.
69

Can you share its Activity? I mean this compound: `COc1ccc(C(=O)OC/C=C(\C#N)CO)cc1`
86

# lookup: Activity of `N#C/C(=C\COC(=O)c1ccc(Cl)cc1Cl)CO`
69

Recorded Activity for `N#C/C(=C\COC(=O)c1ccc(F)cc1Cl)CO` , please?
151

Fill in: Activity of `COc1ccc(OC/C=C(\C#N)CO)cc1` is ___
77

# Activity lookup, item `N#C/C(=C\COC(=O)c1ccccc1)CO`
73

Quick one: Activity of `N#C/C(=C\COc1ccccc1)CO` ?
48

// query Activity value for entry `COc1ccc(COC/C=C(\C#N)CO)cc1`
71

* * *

Experimental protocol: In vitro effect on the proliferation of T lymphocytes of mouse splenocytes at 0.2 umol/L to show the cell-mediated immunity by [3H]thymidine incorporation
Type: functional
Value kind: Activity (%)
// units = %; emit number, no label

Which Activity value is on record for `N#C/C(=C\COC(=O)c1ccc(Cl)cc1Cl)CO` ?
119

Any idea what Activity was measured for `N#C/C(=C\COC(=O)c1ccccc1)CO` ?
97

Value lookup for Activity; key = `N#C/C(=C\COc1ccccc1)CO`
100

Entry `N#C/C(=C\COC(=O)c1ccc(F)cc1Cl)CO` : reported Activity = ?
123

What value of measured Activity is listed for `COc1ccc(C(=O)OC/C=C(\C#N)CO)cc1` ?
100

Which Activity is listed for `N#C/C(=C\COC(=O)/C=C/c1ccccc1)CO` ?
80

Any idea what its Activity is? The compound is `COc1ccc(OC/C=C(\C#N)CO)cc1`
101

Dear colleague, I am looking for the recorded Activity of the following compound: `COc1ccc(COC/C=C(\C#N)CO)cc1`
93
